B1: tRNA (parent)
chain: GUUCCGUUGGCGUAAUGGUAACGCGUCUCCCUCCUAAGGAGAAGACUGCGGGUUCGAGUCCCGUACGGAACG

# Variants of: B1
# Experiment Notes: yeast fitness relative to wild type (ratio to wild type); higher = fitter; tRNA-Arg(CCU), competitive growth, 37 C, YPD
This sample holds only a part of the variants without activity.

# Record Sequence, yeast fitness
rows = [
    ("GUUCCGUUGGCGUAAUGGUAACGCGUCUUCCUACUCAGGAGCAGGCUGCGGGUUCGAGUCCCGUACGGAACG [C29U C33A A36C A42C A45G]", "≤ 0.5"),
    ("GUGGCGUUGGCGUAAUGGUAAUGCGUCUUCCUCCUAAGGAGAAGACUGCGGCUUCGAGUCCCAUACUGACCG [U3G C4G C22U C29U G52C G63A G67U A70C]", "≤ 0.5"),
    ("GUUCCGUUGGCGUAAUGGUAACGCGUCUCCCUCCUAACGAGAUGGCUGCGGGUUCGAGUCCCGUACGGAACG [G38C A43U A45G]", "≤ 0.5"),
    ("GUGCCGUUGGAGUAAUGGUAACCCGUCUCCCUCCUAAGGAGAAGACUGCGGCUUCGAGUCCCGUACGGAACG [U3G C11A G23C G52C]", "≤ 0.5"),
    ("GUUCCGUUGGCGUAAUGGUAACGCGUCUACCUGCUAAGGAGAAGACUGCGGGUUCGAGUCUCGUAUGGAACG [C29A C33G C61U C66U]", "≤ 0.5"),
    ("GUUCCGUUGGCGUAACGGUAACGCGUCUCCCUCCUAAGGAGAAGACCGCGGGUUCGAGUUCAGUACGGAACG [U16C U47C C60U C62A]", "≤ 0.5"),
    ("GUUCCGUUGGCGUAAUGGUAACGCGUCUCCCUGCUAAGGAGAAGUCUGCGGGUUUGAGUCCCGUACGGAACG [C33G A45U C55U]", "≤ 0.5"),
    ("GUUCCGUUGGCGUAAUGGUAACGCGUUUCCGUCCUAAGGGGAAGACUGCGGGUUCGAGUCCCGUACGGAACG [C27U C31G A40G]", "≤ 0.5"),
    ("GUUCCGUUGGCCUAAUGGUAACGCGACUCCCUCCUAAGGAGAAGACUACGGGUUCCAGUCCCGUACGGAACG [G12C U26A G48A G56C]", "≤ 0.5"),
    ("GUUCCGUUGGCGUAAUGGUAACACGUCUCCCUCUUAAGGAGAUCACUGCGGGUUCGAGUUCCGUACGGAACG [G23A C34U A43U G44C C60U]", "≤ 0.5"),
    ("GUUUCGUUGGGGUAACGGUAACGCGUCUCCCUCAUAAGGAGAAGACUGCGGGUUCGAGUUCCGUACGGGACG [C4U C11G U16C C34A C60U A69G]", "≤ 0.5"),
    ("GUUUCGUUGCCGUAAUGGUAACGCGUCUCCCUCCUAAGGAGAAGACCGCGGGUUCGAGACCCGUACGGUACG [C4U G10C U47C U59A A69U]", "≤ 0.5"),
    ("GUUCCGUGGGUGUAAUGGUAACGCGUCUCCCUCCUAAGGAGAAGACUACGGGUUCGAGUCCCGUACGGUACG [U8G C11U G48A A69U]", "≤ 0.5"),
    ("GUUCCGUUGGCGUCAUGGUAACGCGACUUCCUCCUAAGGAGAAGACUGUGGGUUCGAGUCCGGUACGCAACG [A14C U26A C29U C49U C62G G68C]", 0.519),
    ("GUUCCGAUGGCGUAUUGGUAACGCGUCUCCCUCCUCUGGAGACGAUUGGAGGUUCGAGUCCCGUACGGAACG [U7A A15U A36C A37U A43C C46U C49G G50A]", "≤ 0.5"),
    ("GUUCCGUUGGCGCAAUGGUAACGCGUCUCCCUCCUAAGGAGAAGACUCUGGGUUCGAGUCCCGUACGGAACG [U13C G48C C49U]", 0.772),
    ("GUUCCGUUGGCGUAAUGGUAACGCGUCUCCCUCCUACGGAGAAGAGUGCGGGUUCGAGUCCCGUACGGACCG [A37C C46G A70C]", 0.632),
    ("GUUCCGUUGGCGUAAUGGUAACGCGUCUCUCUCCUAAGGUGAAGACUGCGGGUUCGAGUCCCGUACGGACCG [C30U A40U A70C]", 0.56),
    ("GUUCCGUUGGUGUAAUGGUAACGCGUCUCCCUCCUAAGGAGAAGACUGCGGAUUCGAGUCCCGUUCGGAACG [C11U G52A A65U]", 0.567),
    ("GUUCCGUUGGCGUAAUGGUAUCGCGUCUCCCUCCUAACGAGAUGACUGCAGGUUCGAGUCCCGUCCGGAACG [A21U G38C A43U G50A A65C]", "≤ 0.5"),
    ("GUUCCGUUGGCGUAAUGGUAACGUGUCUCCCUGCUAAGGAGAAGACUGCGGGUUCGAGCCCCGAACGGAACG [C24U C33G U59C U64A]", 0.686),
    ("GUCCCGUUGGCGUAAUGGUGACGUGUCUCCCUCCUAAGGAGAAGACUGCGGAUUCGUGUCCAGUACGGAACG [U3C A20G C24U G52A A57U C62A]", "≤ 0.5"),
    ("GUUCCGCUGGCGCAAUGGUAACGCGUCUCCGUCUUAAGGAGAAGACUGCGGGUUUGAAUCUCGUACGGAACG [U7C U13C C31G C34U C55U G58A C61U]", "≤ 0.5"),
    ("GUUCUGUUAGCGUAAUGGUAACGCGUCUCCCUCCUACGGAGAAGACUGCGGGUUCGAGUUCCGUACAGAACG [C5U G9A A37C C60U G67A]", "≤ 0.5"),
    ("GUUCCGUUGGCGUAAUGGUAACGCGUCUCCCUCCUAAGGAGAAGUCUGCGGGUUCGAGUCCCGAACGGAACG [A45U U64A]", 0.708),
    ("GUUCCGUUGGCGUAAUGGUAACGCGUCUCCCUCCUAAGGAGAAGAUUGCGGGUUCGAGUCCCGUACGUAACG [C46U G68U]", 0.857),
    ("GUUGCGUUGGCGUAAUGGUAACGCGUCUCCCUCCUAACGAGAAGACUGCGGGUUCGAGUCCCGUACGGAACG [C4G G38C]", 0.763),
    ("GUUCCGCUGGCGUAAUGGUAACGCGUCUCCGUACUAAGGAGAAGACUGCGGGUUCGAGUCCCGUAAGGAACG [U7C C31G C33A C66A]", "≤ 0.5"),
    ("GUUCCGUUGGCGUAAUGGUAACGCGUCUCCCUCCUAAGGAGAAGAGUGCGGGUUCGGGUCCCGUACGGAACG [C46G A57G]", 0.987),
    ("GUUCCGUUGGCGUAAUGGUAACGCGUCUCCCUCCUAAGGAGAAGACUGCGGGUUCGAGUCCUCCACGGAACG [C62U G63C U64C]", 0.789),
    ("GUUCCGGUGGCGUAAUGGUAACGCGUCUCCCUCCUAAAGGGAAGACUGCGGGUUCGAGUCCCGUAAGGAACG [U7G G38A A40G C66A]", "≤ 0.5"),
    ("GUUUCGUUGGUGUAAUGGUAACGCGUCUCCCUUCUAAGGAGAAGACUGCGGGUUCGAGUCCAGUACGGAACG [C4U C11U C33U C62A]", "≤ 0.5"),
    ("GUUCCGUUGGCGUAAUGGUAACGCGUCUCCCUCCUAGGGAGAAGACUGCGGGCUCGCGUCCCGUACGGAACG [A37G U53C A57C]", "≤ 0.5"),
    ("GUUCCGUUAACGUAAUGGUAACGCGUCUCCGUCCUAAGGAGAAGACUGCGGAUUCGAGUCCCGUCCGGAACG [G9A G10A C31G G52A A65C]", "≤ 0.5"),
    ("GCUCCGUUGGCGUAAUGGUAACGCGUCUCCCUCCUAAGGAGAAGACUGCGGGUUCAAGUCCCGUGCGGAACG [U2C G56A A65G]", 1.27),
    ("GUUCCGUUGGCGUAAUGGUAACGCGUGUCCCUCCUAAGGAGGAGACUGCGGGUUCGAGUACCGUACGGAACG [C27G A42G C60A]", "≤ 0.5"),
    ("GUUCUGUUGGCGUAAUGGUAAAGCGUCUCCUUCCUAAGGAGAAGACUGCGGGUUCGAGUCCCGUACGCAACG [C5U C22A C31U G68C]", "≤ 0.5"),
    ("GUUCCGGUGGUCUAAUGGUAACGCGUCUCCCUUCUAAGGAGAAGACUGCGGGUUCGACUCCCGUACGGAACG [U7G C11U G12C C33U G58C]", "≤ 0.5"),
    ("GUUCCAUUGGCGUAAUGGUCACGCGUCUCCCUCCUAAGGAGAAGACUGCGGGUUCGCGUCCCGUACGGAACG [G6A A20C A57C]", "≤ 0.5"),
]
